Listed here are compounds together with their documented IC50.
studySystem: Sodium-dependent serotonin transporter (Homo sapiens, UniProt P31645)
Sequence (P31645 whole entry): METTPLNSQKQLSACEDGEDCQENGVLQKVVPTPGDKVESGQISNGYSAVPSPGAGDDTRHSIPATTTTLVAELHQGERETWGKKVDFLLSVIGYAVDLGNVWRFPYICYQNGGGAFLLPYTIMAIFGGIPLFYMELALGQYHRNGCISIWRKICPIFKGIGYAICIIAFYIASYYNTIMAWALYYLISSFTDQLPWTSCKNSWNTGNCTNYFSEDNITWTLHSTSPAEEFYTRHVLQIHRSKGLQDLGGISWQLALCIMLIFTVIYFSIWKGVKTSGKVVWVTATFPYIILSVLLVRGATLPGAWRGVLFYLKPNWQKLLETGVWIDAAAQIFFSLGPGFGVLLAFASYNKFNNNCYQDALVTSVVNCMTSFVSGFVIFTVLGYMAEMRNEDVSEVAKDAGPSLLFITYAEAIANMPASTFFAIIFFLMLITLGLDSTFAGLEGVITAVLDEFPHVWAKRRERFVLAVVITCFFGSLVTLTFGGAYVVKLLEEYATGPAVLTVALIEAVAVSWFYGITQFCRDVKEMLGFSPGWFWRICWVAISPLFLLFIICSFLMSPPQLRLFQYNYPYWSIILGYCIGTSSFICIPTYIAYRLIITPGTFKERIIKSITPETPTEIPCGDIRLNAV
Type: cell-based, JAR
Description: Inhibition of 5-HT transporter-mediated [3H]5HT uptake in human Jar cells
observationType: IC50

1. NC(=O)c1ccc(F)c2c1CC(N(CCCCn1ccc3cc(F)ccc31)C1CCC1)CO2 (centres undefined) : > 1000 nM
2. CCCN(CCCc1c[nH]c2ccc(F)cc12)C1COc2c(F)ccc(C(=O)NC)c2C1 (centres undefined) : 24.3 nM
3. COc1ccc2[nH]cc(CCCN(C3CCC3)C3COc4c(F)ccc(C(N)=O)c4C3)c2c1 (centres undefined) : 834 nM
4. CC(CCc1c[nH]c2ccc(F)cc12)N(CC1CC1)C1COc2c(F)ccc(C(N)=O)c2C1 (single isomer, unassigned; (-)) : 193 nM

----------
studySystem: Sodium-dependent serotonin transporter (Homo sapiens)
Assay type: cell-based, JAR
pIC50: −log10 of the molar value.
Classification field: enter MET for pIC50 values not below 7, NOT MET for values below it.

1) CCCN(CC1CCc2[nH]c3ccc(F)cc3c2C1)[C@H]1COc2c(F)ccc(C(N)=O)c2C1 (stereo in doubt; 58a) : NOT MET
2) CCCN(CCCc1c[nH]c2ccc(F)cc12)C1COc2c(F)ccc(OC)c2C1 (stereo not drawn) : NOT MET
3) CCCN(CCCc1c[nH]c2ccc(F)cc12)[C@@H]1COc2c(F)ccc(OC)c2C1 : NOT MET
4) O=C(NCC1CC1)c1ccc(F)c2c1CC(N(CCCc1c[nH]c3ccc(F)cc13)C1CCC1)CO2 (stereo not drawn) : MET
5) O=C(O)c1ccc(F)c2c1CC(N(CCCc1c[nH]c3ccc(F)cc13)C1CCC1)CO2 (stereo not drawn) : NOT MET
6) CCCN(CCCc1c[nH]c2ccc(F)cc12)[C@H]1COc2c(F)ccc(C(=O)NC)c2C1 : MET
7) CCCN(CCCCn1ccc2cccc(F)c21)C1COc2c(F)ccc(C(N)=O)c2C1 (stereo not drawn) : NOT MET
8) NC(=O)c1ccc(F)c2c1CC(N(CCCc1c[nH]c3ccc(Cl)cc13)C1CCC1)CO2 (stereo not drawn) : NOT MET
9) NC(=O)c1ccc(F)c2c1CC(N(CCCCn1ccc3ccc(F)cc31)C1CCC1)CO2 (stereo not drawn) : NOT MET
10) NC(=O)c1ccc(F)c2c1CC(N(CCCc1c[nH]c3c(F)cc(F)cc13)C1CCC1)CO2 (single isomer, unassigned; (+)) : NOT MET
11) CCNC(=O)c1ccc(F)c2c1CC(N(CCCc1c[nH]c3ccc(F)cc13)C1CCC1)CO2 (stereo not drawn) : MET
12) N#Cc1ccc2[nH]cc(CCCN(C3CCC3)C3COc4c(F)ccc(C(N)=O)c4C3)c2c1 (single isomer, unassigned; (-)) : MET
13) NC(=O)c1ccc(F)c2c1CC(N(CCCCn1ccc3cccc(F)c31)C1CCC1)CO2 (stereo not drawn) : NOT MET
14) CCCN(CCCCn1ccc2ccc(F)cc21)C1COc2c(F)ccc(C(N)=O)c2C1 (stereo not drawn) : NOT MET
15) N#Cc1ccc2[nH]cc(CCCN(C3CCC3)C3COc4c(F)ccc(C(N)=O)c4C3)c2c1 (single isomer, unassigned; (+)) : MET
16) NC(=O)c1ccc(F)c2c1C[C@@H](NCC1CCc3[nH]c4ccc(F)cc4c3C1)CO2 (stereo in doubt; 57a) : NOT MET
17) CCCNC(=O)c1ccc(F)c2c1CC(N(CCCc1c[nH]c3ccc(F)cc13)C1CCC1)CO2 (stereo not drawn) : MET
18) CN(C)C(=O)c1ccc(F)c2c1CC(N(CCCc1c[nH]c3ccc(F)cc13)C1CCC1)CO2 (stereo not drawn) : NOT MET
19) CCCN(CCCc1c[nH]c2ccc(F)cc12)[C@H]1COc2c(F)ccc(OC)c2C1 : NOT MET
20) CNC(=O)c1ccc(F)c2c1CC(N(CCCc1c[nH]c3ccc(F)cc13)C1CCC1)CO2 (stereo not drawn) : MET
21) COc1cccc2c(CCCN(C3CCC3)C3COc4c(F)ccc(C(N)=O)c4C3)c[nH]c12 (stereo not drawn) : NOT MET
22) COC(=O)c1ccc(F)c2c1CC(N(CCCc1c[nH]c3ccc(F)cc13)C1CCC1)CO2 (stereo not drawn) : NOT MET
23) NC(=O)c1cccc2c1CC(N(CCCc1c[nH]c3ccc(F)cc13)C1CCC1)CO2 (stereo in doubt; (+)-35e) : MET
24) NC(=O)c1ccc(F)c2c1CC(N(CCCc1c[nH]c3cc(F)ccc13)C1CCC1)CO2 (stereo not drawn) : NOT MET
